System: sAPPβ levels in H4 human neuroglioma cells over-expressing wild-type human APP695
EXPERIMENTAL_DETAILS: sAPPβ whole cell assay (in vitro sAPPb assay, TMB-ELISA)
Format: cell-based
ASSAY_CONTEXT: Homo sapiens, 18 hours, geometric mean of 2-6 determinations
READOUT_LABEL: IC50

• C[C@@H]1SC(N)=N[C@@]2(c3ccccc3F)COCC[C@@H]12 (racemic) [Example 28] = 445 nM
• C[C@H]1SC(N)=N[C@@]2(c3ccccc3F)COCC[C@@H]12 (racemic) [Example 27] = 434 nM
• C[C@H]1SC(N)=N[C@@]2(c3cc(-c4cncnc4)ccc3F)COCC[C@@H]12 (racemic) [Example 31] = 112 nM
• NC1=N[C@@]2(c3ccccc3F)CO[C@@H](CO)C[C@H]2CS1 [Example 29] = 493 nM
• COC[C@H]1C[C@H]2CSC(N)=N[C@@]2(c2ccccc2F)CO1 [Example 26] = 148 nM
• C[C@H]1SC(N)=N[C@@]2(c3cc(Br)ccc3F)COCC[C@@H]12 (racemic) [Example 30] = 1650 nM

----------
TARGET_ENTITY: BACE1 enzyme (Homo sapiens)
Sequence (P56817 46-501 limits assumed): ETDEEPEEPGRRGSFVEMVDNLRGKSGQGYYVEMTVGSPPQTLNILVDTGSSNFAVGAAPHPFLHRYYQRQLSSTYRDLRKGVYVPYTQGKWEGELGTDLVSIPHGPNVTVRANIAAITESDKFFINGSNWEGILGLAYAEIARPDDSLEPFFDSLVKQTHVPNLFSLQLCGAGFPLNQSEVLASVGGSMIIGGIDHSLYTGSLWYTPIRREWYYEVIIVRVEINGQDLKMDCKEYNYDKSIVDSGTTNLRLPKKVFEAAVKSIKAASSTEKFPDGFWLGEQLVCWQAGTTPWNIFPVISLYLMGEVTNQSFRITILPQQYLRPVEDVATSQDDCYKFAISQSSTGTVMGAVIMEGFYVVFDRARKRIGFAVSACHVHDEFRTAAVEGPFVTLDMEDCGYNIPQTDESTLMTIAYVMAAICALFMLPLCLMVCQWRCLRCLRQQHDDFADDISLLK
EXPERIMENTAL_DETAILS: BACE1 cell-free assay (fluorescence polarization, synthetic APP substrate);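 note: soluble His-tagged BACE1 purified from transfected CHO-K1 cell media, biotinylated Oregon Green-labelled peptide substrate, 3 h at 37 °C, cleavage followed as change in fluorescence polarization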
Assay type: biochemical
ASSAY_CONTEXT: geometric mean of 2-6 determinations; values marked b from a single determination
pIC50: −log10 of the molar value.
READOUT_LABEL: pIC50

• C[C@H]1SC(N)=N[C@@]2(c3cc(Br)ccc3F)COCC[C@@H]12 (racemic) = 4.56
• NC1=N[C@@]2(c3ccccc3F)CO[C@@H](CO)C[C@H]2CS1 = 5.08
• C[C@H]1SC(N)=N[C@@]2(c3ccccc3F)COCC[C@@H]12 (racemic) = 5.17
• NC1=N[C@@]2(c3ccccc3OC(F)(F)F)COCC[C@H]2CS1 = 4.06
• COC[C@H]1C[C@H]2CSC(N)=N[C@@]2(c2ccccc2F)CO1 = 5.91
• C[C@H]1SC(N)=N[C@@]2(c3cc(-c4cncnc4)ccc3F)COCC[C@@H]12 (racemic) = 5.52
• C[C@@H]1SC(N)=N[C@@]2(c3ccccc3F)COCC[C@@H]12 (racemic) = 4.95
• NC1=N[C@@]2(c3ccccc3F)COCC[C@H]2CS1 [Example 24] = 5.34
• NC1=N[C@@]2(c3ccccc3F)COCC[C@H]2CS1 (racemic) [Example 23] = 5.10

----------
Property: pIC50; scope: individual molecules
Tested on: sAPPβ levels in H4 human neuroglioma cells over-expressing wild-type human APP695
EXPERIMENTAL_DETAILS: sAPPβ whole cell assay (in vitro sAPPb assay, TMB-ELISA)
Type: cell-based
ASSAY_CONTEXT: Homo sapiens, 18 hours, geometric mean of 2-4 determinations, values marked b from a single determination
pIC50: −log10 of the molar value. Counter-ions that a name gives are not always drawn.
READOUT_LABEL: pIC50

• CCOC[C@H]1C[C@H]2CSC(N)=N[C@@]2(c2ccccc2F)CO1 [Example 9, trifluoroacetic acid salt] = 7.10
• NC1=N[C@@]2(c3ccc(Cl)cc3F)COCC[C@H]2CS1 (relative stereo) [Example 17, hydrochloride salt] = 6.11
• NC1=N[C@@]2(c3ccccc3F)CO[C@@H](COc3ccccn3)C[C@H]2CS1 = 6.62
• NC1=N[C@@]2(c3ccccc3F)CO[C@@H](COc3ncccn3)C[C@H]2CS1 [Example 22, trifluoroacetic acid salt] = 7.15
• COc1ccccc1[C@]12COCC[C@H]1CSC(N)=N2 (relative stereo) = 5.39
• CC(C)OC[C@H]1C[C@H]2CSC(N)=N[C@@]2(c2ccccc2F)CO1 [Example 2, trifluoroacetate salt] = 7.14
• NC1=N[C@@]2(c3ccccc3F)CO[C@@H](COc3ccccc3)C[C@H]2CS1 = 6.97
• NC1=N[C@@]2(c3ccccc3)COCC[C@H]2CS1 (relative stereo) = 6.32
• NC1=N[C@@]2(c3ccccc3F)CO[C@@H](COC(=O)c3ccccc3)C[C@H]2CS1 = 6.31
• NC1=N[C@@]2(c3ccc(F)cc3F)CO[C@@H](CO)C[C@H]2CS1 = 6.36
• Cc1ccc([C@]23COCC[C@H]2CSC(N)=N3)c(F)c1 (relative stereo) [Example 13, hydrochloride salt] = 6.36
• NC1=N[C@@]2(c3ccc(F)cc3)COCC[C@H]2CS1 (relative stereo) = 6.42
• NC1=N[C@@]2(c3ccc(F)cc3F)COCC[C@H]2CS1 = 6.68
• NC1=N[C@@]2(c3ccc(O)cc3F)COCC[C@H]2CS1 (relative stereo) [Example 18, ammonium salt] = 6.00
• NC1=N[C@@]2(c3ccccc3F)CO[C@@H](CF)C[C@H]2CS1 = 7.08
• NC1=N[C@@]2(c3ccc(F)cc3F)CO[C@@H](COCc3ccccc3)C[C@H]2CS1 [Example 6, trifluoroacetic acid salt] = 7.19
• NC1=N[C@@]2(c3ccccc3F)CO[C@@H](COc3cnccn3)C[C@H]2CS1 [Example 21, trifluoroacetic acid salt] = 7.64
